- ASSAY_REMARKS: Plasma pharmacokinetics at steady state (Day 32)
- Type: in vivo, human
- CONDITION_CONTEXT: both sexes, human, inhaled or intranasal, 800 ug; 800 μg BID inhaled; plasma on Day 32; geometric mean (%CV)

MOLECULE	Cmax [ng/mL]
CS(=O)(=O)Nc1ccc(C(=O)O[C@@H](Cc2c(Cl)c[n+]([O-])cc2Cl)c2ccc(OC(F)F)c(OCC3CC3)c2)cc1OCC1CC1 [CHF6001]	2.44

---

- ASSAY_REMARKS: Plasma pharmacokinetics at steady state (Day 32)
- Assay type: in vivo, human
- CONDITION_CONTEXT: both sexes, human, inhaled or intranasal, 800 ug; 800 μg BID inhaled; plasma on Day 32; geometric mean (%CV)
VALUE_KIND: CL/F (mL/min)

SMILES_REPR	QUANTITATIVE_READOUT
CS(=O)(=O)Nc1ccc(C(=O)O[C@@H](Cc2c(Cl)c[n+]([O-])cc2Cl)c2ccc(OC(F)F)c(OCC3CC3)c2)cc1OCC1CC1	603
